# Test system: Staphylococcus aureus ATCC 29213
# Experimental details: ≥ marks a high value that may be exact or a test limit, other limits are often not marked, values filed in µg/mL are converted to µM
Each entry below carries its recorded MIC.

Some solved entries appear below for comparison.
# Smiles, MIC
data = [
    ("CC(C)C[C@H](NC(=O)CNC(=O)[C@H](Cc1c[nH]c2ccccc12)NC(=O)CNC(=O)[C@H](CC(C)C)NC(=O)[C@H](CCCCN)NC(=O)[C@@H](N)CCCCN)C(=O)N[C@@H](CCCCN)C(=O)N[C@@H](CCCCN)C(N)=O", "> 128 µM"),
    ("CC[C@H](C)[C@H](NC(=O)[C@@H]1CCCN1C(=O)[C@@H]1CCCN1)C(=O)N[C@H](C(=O)NCC(=O)N[C@@H](CO)C(=O)N[C@H](C(=O)N1CCC[C@H]1C(=O)N[C@@H](CC(C)C)C(=O)NCC(=O)N[C@@H](CS)C(=O)NCC(N)=O)[C@@H](C)CC)C(C)C", "> 128 µM"),
]

Okay, next one:
// recorded MIC for CC[C@H](C)[C@H](NC(=O)[C@H](CCCN=C(N)N)NC(=O)[C@H](CCCCN)NC(=O)[C@H](Cc1ccccc1)NC(=O)[C@H](CCC(=O)O)NC(=O)[C@H](CCCCN)NC(=O)CN)C(=O)N[C@H](C(=O)N[C@@H](Cc1c[nH]c2ccccc12)C(=O)N[C@@H](CC(C)C)C(=O)N[C@@H](CO)C(=O)N[C@@H](CCCCN)C(=O)N[C@H](C(=O)N[C@@H](C)C(=O)N[C@@H](CCCCN)C(=O)N[C@@H](CCCCN)C(=O)N[C@@H](CC(C)C)C(N)=O)[C@@H](C)O)C(C)C : > 128 µM

====

# Test system: Salmonella enterica subsp. enterica serovar Typhimurium ATCC 14028
Each entry below carries its recorded MIC.

Some solved entries appear below for comparison.
# Smiles, Tested on, MIC
data = [
    ("CC(C)C[C@H](NC(=O)CNC(=O)[C@H](Cc1c[nH]c2ccccc12)NC(=O)CNC(=O)[C@H](CC(C)C)NC(=O)[C@H](CCCCN)NC(=O)[C@@H](N)CCCCN)C(=O)N[C@@H](CCCCN)C(=O)N[C@@H](CCCCN)C(N)=O", "Salmonella enterica subsp. enterica serovar Typhimurium ATCC 14028", "> 128 µM"),
    ("CC[C@H](C)[C@H](N)C(=O)N[C@@H](CS)C(=O)N[C@@H](CCCN=C(N)N)C(=O)N[C@@H](CCCCN)C(=O)N1CCC[C@H]1C(=O)N[C@H](C(=O)N[C@H](C(=O)N[C@@H](CS)C(=O)N[C@@H](CCCN=C(N)N)C(=O)N[C@@H](CCCCN)C(=O)N1CCC[C@H]1C(=O)N[C@H](C(N)=O)[C@@H](C)CC)[C@@H](C)CC)[C@@H](C)CC", "Salmonella enterica subsp. enterica serovar Typhimurium ATCC 14028", "> 64 µM"),
]

Okay, next one:
Record NCCCC[C@H](NC(=O)[C@H](CCCCN)NC(=O)[C@H](CCCN=C(N)N)NC(=O)[C@H](CCCN=C(N)N)NC(=O)[C@H](Cc1c[nH]c2ccccc12)NC(=O)[C@H](CCC(N)=O)NC(=O)[C@H](Cc1c[nH]c2ccccc12)NC(=O)[C@H](CCCN=C(N)N)NC(=O)[C@H](CCCN=C(N)N)NC(=O)[C@H](CCCCN)NC(=O)[C@@H](N)CCCCN)C(N)=O / Salmonella enterica subsp. enterica serovar Typhimurium ATCC 14028, MIC recorded as > 128 µM
